# subject.of.test: T1, extracellular domain of rhesus monkey BCMA (rhesus monkey, UniProt F7FFA0 1-53)
# T1 construct: extracellular domain; also called RhBCMA
# method.summary: Octet BLI; Fab 200 nM
Here the recorded Kd is given for each entry.
assay.endpoint: Kd (nM)

| binder | assay.endpoint | measurement |
| --- | --- | --- |
| AB200-R1a-Fab_VH49 (Fab, V domains shown) VH: QVQLVQSGAEVKKPGSSVKVSCKASGGTFSNYWIHWVRQAPGQGLEWMGASYRGHSDTYYNQKFKGRVTITADKSTSTAYMELSSLRSEDTAVYYCARGAIYHGYDVIDNWGQGTLVTVSS VL: DIQMTQSPSSLSASVGDRVTITCSATQDISNYLNWYQQKPGKAPKLLIYFTSNLQSGVPSRFSGSGSGTDFTLTISSLQPEDFATYYCQQYRKLPWTFGQGTKLEIKR | Kd | 15.6 |
| AB200-R1a-Fab_VH5 (Fab, V domains shown) VH: QVQLVQSGAEVKKPGSSVKVSCKASGGTFSNYWMHWVRQAPGQGLEWMGATYRGHSDSNYNNKFKGRVTITADKSTSTAYMELSSLRSEDTAVYYCARGAIYHGYDVLDNWGQGTLVTVSS VL: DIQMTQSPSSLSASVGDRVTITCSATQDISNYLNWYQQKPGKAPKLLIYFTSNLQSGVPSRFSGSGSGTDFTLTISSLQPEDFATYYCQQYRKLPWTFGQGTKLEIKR | Kd | 23.4 |

From: patent US20240327535A1
